Experiment: HT29 colon tumor cell growth inhibition, primary screen, imaging, high content imaging, 48 h, CellTiter-Glo (AID 771)
Details: HCS imaging cell count, measured here: ATP CellTiter-Glo viability inhibition, at 10 µM, stronger effect = higher value
In all, about 3,300 compounds went through this assay and about 55 (2%) were called active. This excerpt belongs to a sample that is enriched for actives.
VALUE KIND: growth inhibition (%)
Lab book: enter the figure in %, no units written.

COMPOUND: COc1ccc(C(C)=O)cc1CSCCC(=O)O
growth inhibition / %: -10.3

COMPOUND: CSc1nc2sc3c(c2c(=O)[nH]1)CCC(C)C3 (stereo unspecified)
growth inhibition / %: 10.4

COMPOUND: CCOc1ccc2nc(SCC(=O)Nc3ncccn3)[nH]c2c1
growth inhibition / %: 0

COMPOUND: Cc1cccc(OCc2nc(C)cc(=O)[nH]2)c1
growth inhibition / %: 1.04

COMPOUND: Cc1ccc2nc(NCc3ccccc3)[nH]c2c1
growth inhibition / %: 67.4

## Input Any idea what its growth inhibition is? The compound is CN(C)S(=O)(=O)Nc1ccc(NS(=O)(=O)N(C)C)c(S(=O)(=O)c2ccccc2)c1
## Output -14.5

## Input Item C=CCOC(=O)C1=C(C)NC(SCC(=O)Nc2ccc(C)c(Cl)c2)=C(C#N)C1c1ccco1 (stereo unspecified) has what recorded growth inhibition?
## Output 45.8

----------
Experiment: HT29 colon tumor cell growth inhibition, primary screen, imaging, high content imaging, 48 h, CellTiter-Glo (AID 771)
Conditions: HCS imaging cell count, measured here: ATP CellTiter-Glo viability inhibition, at 10 µM, stronger effect = higher value
In all, about 3,300 compounds went through this assay and about 55 (2%) were called active. This is one part of a sample in which actives are shown more often than they occur.
Listing: growth inhibition of selected molecules
Give the number; % is assumed, so skip it.

STRUCTURE AS SMILES: COc1ccccc1-n1c(=O)c2c3c(sc2n2c(SC(C)C)nnc12)CCC3
MEASURED NUMBER: -1.5

STRUCTURE AS SMILES: CCCCOc1ccc(C)cc1CN(CCO)CCO
MEASURED NUMBER: 1.6

STRUCTURE AS SMILES: CCCc1cc(NCCCCO)n2c(nc3ccccc32)c1C#N
MEASURED NUMBER: 6.57

## Input Reported growth inhibition for Cc1cc(=O)oc(C)c1C(=O)N[C@@H]1CCCCNC1=O : what is it?
## Output -3.89

## Input Quick one: growth inhibition for CN=C1c2cc3c(Br)c(OC)ccc3n2CCN1C ?
## Output 20.4

## Input Fill in: growth inhibition of COC(=O)CSc1nc2sc3c(c2c(=O)n1C1CCCCC1)CCN(C)C3 is ___
## Output -21.3

----------
Assay: HT29 colon tumor cell growth inhibition, primary screen, imaging, high content imaging, 48 h, CellTiter-Glo (AID 771)
Conditions: HCS imaging cell count, at 10 µM, stronger effect = higher value
In all, about 3,300 compounds went through this assay and about 55 (2%) were called active. This is one part of a sample in which actives are shown more often than they occur.
VALUE KIND: growth inhibition

Observe how each entry below is paired with its result.
MOLECULE: COC(=O)c1ccccc1OCc1cccc(C)n1
RESULT: 39.5% (inactive)

MOLECULE: Cc1cccc(-n2ncc3c(NCc4ccco4)ncnc32)c1
RESULT: 90.8% (active)

MOLECULE: OCCN1CCN(CCCN2c3ccccc3Sc3ccc(C(F)(F)F)cc32)CC1
RESULT: 99.7% (active)

MOLECULE: COc1ccccc1Nc1ncnc2c1cnn2-c1cccc(C)c1
RESULT: 30.4% (inactive)

MOLECULE: Cc1ccc(NC(=O)CSC2=C(C#N)C(c3ccco3)C3=C(CCCC3=O)N2)cc1 (configuration not stated)
RESULT: 18.9% (inactive)

Now examine the next entry.
## Input Any idea what growth inhibition was measured for Cc1ccc(C(=O)CSC2=C(C#N)C(c3ccco3)C3=C(CCCC3=O)N2)cc1 (configuration not stated) ?
## Output 86% (inactive)

----------
Assay: HT29 colon tumor cell growth inhibition, primary screen, imaging, high content imaging, 48 h, CellTiter-Glo (AID 771);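 as to condensed nuclei: condensed means Hoechst nuclear area under control median minus 1.5 SD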
Settings: HCS imaging cell count, measured here: percent cells with condensed nuclei, at 10 µM, stronger effect = higher value
The campaign covered roughly 3,300 compounds. About 55 (2%) were called active. For the sample, actives were picked, then their nearest neighbours and some compounds at random.
VALUE KIND: condensed nuclei

// solved cases for condensed nuclei follow
COMPOUND: CN(C)CCCN1c2ccccc2CCc2ccccc21
RESULT: 2.51%
//
COMPOUND: Oc1ccccc1-c1nc(NCCN2CCOCC2)c2ccccc2n1
RESULT: 16.5%
//
COMPOUND: Cn1cccc1/C=N/n1cnnc1
RESULT: 11%
//
COMPOUND: CCc1ccc(NC(=O)CSC2=C(C#N)C(c3ccco3)C3=C(CCCC3=O)N2)cc1 (stereo unspecified)
RESULT: 11.8%

## Input Which condensed nuclei reading was recorded for the compound CCOC(=O)c1[nH]c2cc(OC)c(OC)cc2c1NC(=O)C(C)N1CCN(Cc2ccccc2)CC1 (stereo unspecified) ?
## Output 3.08%

## Input What measured condensed nuclei goes with Cc1occc1C(=O)OCC(=O)Nc1ccc(F)cc1 ?
## Output 4.91%

## Input condensed nuclei for Cc1ccc(NC(=O)CSC2=C(C#N)C(c3ccco3)C3=C(CCCC3=O)N2)cc1 (stereo unspecified) ?
## Output 2.42%

## Input For CCOc1c(C)cc2[nH]c(CCC(=O)O)nc2c1C , what is its reported condensed nuclei?
## Output 2.92%

## Input What value of measured condensed nuclei is listed for CNCCCN1c2ccccc2CCc2ccccc21 ?
## Output 13.8%

## Input For the compound Cc1ccc(C(=O)CSC2=C(C#N)C(c3ccco3)C3=C(CCCC3=O)N2)cc1 (stereo unspecified) , what condensed nuclei is on record?
## Output 6.33%

## Input Entry CCOC(=O)c1c(-c2cccs2)csc1NC(=O)CCCC(=O)O : reported condensed nuclei = ?
## Output 1.96%

----------
This listing pairs compounds with measured growth inhibition.
Test: HT29 colon tumor cell growth inhibition, primary screen, imaging, high content imaging, 48 h, CellTiter-Glo (AID 771)
Settings: HCS imaging cell count, measured here: ATP CellTiter-Glo viability inhibition, at 10 µM, stronger effect = higher value
Hit rate of the full screen: of about 3,300 compounds, about 55 (2%) were called active. Only a selection was taken, and actives are over-represented in it overall.
In your response, put the unit directly after the numeric value.

## Input // lookup growth inhibition for Clc1ccc2[nH]c3c(NCCCN4CCOCC4)ncnc3c2c1
## Output 90%

## Input So what does the record say about growth inhibition for CCC1CC2(C)NC(=O)c3c(sc4c3CC(C)(C)OC4)N2C1=O (configuration not stated) ?
## Output -5.72%

## Input Entry Cc1c(=O)n(OCc2c(F)cccc2F)c2ccccc2[n+]1[O-] has what growth inhibition?
## Output 2.47%

## Input Can you look up the measured growth inhibition of O=C(NCCN1CCCCC1)/C(=N\O)c1ccccc1 for me?
## Output -18.5%

## Input What value of growth inhibition has been recorded for this entry: COC(=O)c1cccc(Nc2cc(C)nc(-c3ccccc3O)n2)c1
## Output 77.4%

----------
Assay: HT29 colon tumor cell growth inhibition, primary screen, imaging, high content imaging, 48 h, CellTiter-Glo (AID 771);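 as to condensed nuclei: condensed means Hoechst nuclear area under control median minus 1.5 SD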
Details: HCS imaging cell count, measured here: percent cells with condensed nuclei, at 10 µM, stronger effect = higher value
Out of some 3,300 compounds screened, about 55 (2%) were called active. The list comes from a sample in which actives are over-represented; it also holds close analogues and randomly drawn compounds.
# maps each entry to its condensed nuclei

COMPOUND: CC(=O)/C=C(\C)NCCNc1c(F)c(F)c(CO)c(F)c1F
condensed nuclei: 1.42%

## Input What does the record list as condensed nuclei for CCCOc1ccc(/C(O)=C2/C(=O)C(=O)N(CCN3CCOCC3)C2c2ccccc2)cc1 (stereo not drawn) ?
## Output 3.56%

## Input Which value of condensed nuclei has been reported for CCOC(=O)C1=C(C)N=C2SC(C)C(=O)N2C1c1ccc(OC(C)=O)c(OC)c1 (stereo not drawn) in the records?
## Output 1.51%

----------
The reader will find reported growth inhibition values listed item by item below.
Assay: HT29 colon tumor cell growth inhibition, primary screen, imaging, high content imaging, 48 h, CellTiter-Glo (AID 771)
Conditions: HCS imaging cell count, at 10 µM, stronger effect = higher value
Among all 3,300 compounds or so, about 55 (2%) were called active. The list comes from a sample in which actives are over-represented; it also holds close analogues and randomly drawn compounds.

Known growth inhibition results, listed for orientation:
COMPOUND: CN(C)CC(O)COc1ccc(-c2ccc(C#N)cc2)cc1 (centres undefined)
RESULT: 71.1% (inactive)
--
COMPOUND: CCOC(=O)C1=C(c2ccccc2)NC(SCC(=O)Nc2ccccc2C)=C(C#N)C1c1ccco1 (centres undefined)
RESULT: 91% (active)
--
COMPOUND: CCOc1cc2nc(-c3ccc(OC)c(OC)c3)nc(N3CCOCC3)c2cc1OC
RESULT: 97.2% (active)
--
COMPOUND: COc1cccc(-c2nc(N3CCN(Cc4ccccc4)CC3)c3ccccc3n2)c1O
RESULT: -8.14% (inactive)
--
COMPOUND: C=CCOC(=O)C1=C(C)NC(SCC(=O)N(CC)CC)=C(C#N)C1c1ccccc1 (centres undefined)
RESULT: 54.1% (inactive)
--
COMPOUND: Cc1ccc(-c2nn(C)c(=O)c3ccccc23)cc1CNC(=O)CSc1nc2ccccc2o1
RESULT: -7.38% (inactive)

## Input Which value of growth inhibition has been reported for CCCCCCc1cc2cc(-c3nnc(-c4ccccc4O)o3)c(=O)oc2cc1O in the records?
## Output 4.58% (inactive)

## Input What growth inhibition value was documented for this compound, C=CCOC(=O)C1=C(C)NC(SCC(=O)N(CC)CC)=C(C#N)C1c1ccco1 (centres undefined) ?
## Output -28.4% (inactive)

## Input Item CCOc1ccc(-c2nn3c(-c4ccc(OC)cc4)nnc3s2)cc1 has what recorded growth inhibition?
## Output 10.5% (inactive)

## Input // returns reported growth inhibition for input COc1cc2nc(-c3ccccc3)nc(N3CCCC3)c2cc1OC
## Output 27.7% (inactive)

## Input Return reported growth inhibition; argument: CN(C)CCC=C1c2ccccc2CCc2ccccc21
## Output 28.2% (inactive)

## Input State the recorded growth inhibition for this entry: C=CCOC(=O)C1=C(C)NC(SCC(=O)Nc2ccc(C)c(Cl)c2)=C(C#N)C1c1ccco1 (centres undefined)
## Output 91.3% (active)

## Input Sample C=CC(O)Cc1c(C)n[nH]c1C (centres undefined) — what was its growth inhibition?
## Output -31.7% (inactive)

## Input Field request: growth inhibition | item: CCN(CC)C(=O)CSC1=C(C#N)C(c2ccco2)C(C(=O)OCCOC)=C(C)N1 (centres undefined)
## Output 25.5% (inactive)

## Input Name the reported growth inhibition value associated with the compound CCCCCCCCNC(C)C(O)c1ccc(SC(C)C)cc1 (centres undefined)
## Output 99.7% (active)

## Input Give the measured growth inhibition of CCCCCCn1cc(C(=O)O)c(=O)c2ccccc21 .
## Output -27.6% (inactive)

## Input Could you tell me which growth inhibition is on file for COCCOC(=O)C1=C(C)NC(SCC(=O)NC(C)(C)C)=C(C#N)C1c1ccco1 (centres undefined) ?
## Output 34.7% (inactive)

## Input Need growth inhibition of Fc1ccc(-c2cnc[nH]2)cc1 , thanks.
## Output 7.2% (inactive)

## Input Dear colleague, I am looking for the recorded growth inhibition of the following compound: Cc1ccc(NC(=O)c2cc(N3CCOCC3)nc3ccccc23)cc1
## Output 52% (inactive)

## Input For the compound CC/C(C)=C1\SC(N2CCN(C(C)=O)CC2)=NC1=O , what growth inhibition is on record?
## Output -12% (inactive)

## Input I'd like to know its growth inhibition. The compound in question is CN(C)S(=O)(=O)Nc1ccc(NS(=O)(=O)N(C)C)c(S(=O)(=O)c2ccccc2)c1
## Output 17.4% (inactive)

## Input Tell me the measured growth inhibition of CCC1(C)Cc2c(sc3c2c(=O)n(C)c2nnc(SCC(=O)c4ccc(Cl)cc4)n32)CO1 (centres undefined) , please.
## Output 0.56% (inactive)

## Input Endpoint output: growth inhibition of CC1CN(C2CCN(C(=O)COc3ccccc3)CC2)CC(C)O1 (centres undefined) . Value?
## Output -1.5% (inactive)

## Input Fill in the blank: the reported growth inhibition of Cc1c(O)c(CN2CCCC(C)C2)cc2c3c(c(=O)oc12)CCC3 (centres undefined) is ____.
## Output -14.5% (inactive)
